System: 3T3-L1
assay comment: Cytotoxicity against mouse 3T3-L1 pre-adipocyte cells assessed as reduction in cell viability at 20 uM incubated for 48 hrs by MTT assay
Assay type: toxicity, cell-based
experimental parameters: 3t3-l1, 48 h
attribute measured: Activity

{"molecule": "Cc1ccc(-c2cnc(-c3ccc[n+](Cc4ccc(Cl)c(Cl)c4)c3)o2)cc1.[Br-]", "assay value": "Toxic"}
{"molecule": "CC(C)=CC[n+]1cccc(-c2ncc(-c3ccc(C)cc3)o2)c1.[Br-]", "assay value": "Toxic"}
{"molecule": "CC(C)=CCC/C(C)=C\\C[n+]1cccc(-c2ncc(-c3ccc(Cl)cc3)o2)c1.[Br-]", "assay value": "Toxic"}
{"molecule": "COc1ccc(-c2cnc(-c3ccc[n+](C/C=C(/C)CCC=C(C)C)c3)o2)cc1.[Br-]", "assay value": "Toxic"}
{"molecule": "Cc1cccc(C[n+]2cccc(-c3ncc(-c4ccc(Cl)cc4)o3)c2)c1.[Br-]", "assay value": "Non-Toxic"}
{"molecule": "Cc1ccc(-c2cnc(-c3ccc[n+](Cc4ccc(C(F)(F)F)cc4)c3)o2)cc1.[Br-]", "assay value": "Non-Toxic"}
{"molecule": "Clc1ccc(-c2cnc(-c3ccc[n+](Cc4ccc(Cl)c(Cl)c4)c3)o2)cc1.[Br-]", "assay value": "Toxic"}
{"molecule": "Clc1ccc(C[n+]2cccc(-c3ncc(-c4ccccc4)o3)c2)cc1Cl.[Br-]", "assay value": "Non-Toxic"}
{"molecule": "CC(C)=CCC/C(C)=C\\C[n+]1cccc(-c2ncc(-c3ccc(C)cc3)o2)c1.[Br-]", "assay value": "Toxic"}
{"molecule": "COc1ccc(-c2cnc(-c3ccc[n+](Cc4ccc(Cl)c(Cl)c4)c3)o2)cc1.[Br-]", "assay value": "Non-Toxic"}
{"molecule": "Cc1ccc(-c2cnc(-c3ccc[n+](Cc4cccc(C)c4)c3)o2)cc1.[Br-]", "assay value": "Non-Toxic"}
